This collection of values is drawn from patent US20190106487A1.

Assign hu-IL1RaP ELISA (OD) to each entry below.
target.desc: T1, rhIL-1RAcP/Fc Chimera (human, UniProt Q9NPH3 21-359)
T1 construct: also called P013_03; P013-03
T1 sequence (looked up): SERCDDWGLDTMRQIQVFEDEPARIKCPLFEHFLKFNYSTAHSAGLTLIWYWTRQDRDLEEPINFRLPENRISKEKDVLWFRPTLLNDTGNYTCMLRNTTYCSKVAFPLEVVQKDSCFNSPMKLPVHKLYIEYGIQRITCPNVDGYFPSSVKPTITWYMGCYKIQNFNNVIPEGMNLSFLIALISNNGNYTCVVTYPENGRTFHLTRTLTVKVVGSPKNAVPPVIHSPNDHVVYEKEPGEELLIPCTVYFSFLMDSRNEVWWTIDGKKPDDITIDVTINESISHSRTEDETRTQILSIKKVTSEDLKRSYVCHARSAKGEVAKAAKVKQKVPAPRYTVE
measurement.protocol: ELISA, primary supernatant, coated hu-IL-1RAcP-Fc
Procedure: Microtiter plates were coated IL-1RACP and/or IL12Rβ1 protein (recombinant Fc chimeric conjugates of human IL-1RACP or IL12Rβ1). After a blocking process, specific antibodies from B-cell supernatants bind to the targets and are then detected by a POD-labeled anti-rabbit IgG antibody. […] 12.5 μL 0.5 μg/mL IL-1RACP protein in PBS was transferred to a microtiter plate, incubated and washed 3× with Wash Buffer. […] Absorbance (Optical Density O.D.) was read at 450 nm/620 nm.
Answers are plain numbers, in OD.

Use these answered entries as a reference point.
P013.S.02.B.B01 (antibody, V domains shown, rabbit monoclonal antibody; also called P013.A.00088.A11) VH: QSLEESGGRLVTPGTPLTLTCTVSGFSLSGYAMSWVRQAPGKGLEWIGIIYAGSGGTYYASWVKGRFTISKTSTTVDLKITSLTTEDTATYFCARAVPDDSAGKKLWGQGTLVTVSS VL: DIVMTQTPASVEAAVGGTITINCQASENIYSSLAWYQQKPGQPPKLLIYDASTLASGVSSRFKGSGSGTQFTLTISGVQSDDAATYYCQSYYCSVSSSCGYGFGGGTEVVVK ... 3.6
P013.S.01.B.D06 (antibody, V domains shown, rabbit monoclonal antibody; also called P013.A.00029.D02) VH: QSLEESGGDLVKPGASLTLTCTASGFSFSSSYYMCWVRQAPGKGLEWIACIYAGSSGVTYYASWAKGRFTISDTSSTTVTLQMTSLTAADTATYFCASETDGNYFNLWGPGTLVTVSS VL: ALVMTQTPSPVSAAVGGTVTINCQASEDIYSNLAWFQQKPGQPPKLLIYRASTLASGVPSRFSGSGSGTEFTLTISGLQSDDAATYYCLGVYTYSTDIHAFGGGTEVVVK ... 3.7
P013.S.02.B.C04 (antibody, V domains shown, rabbit monoclonal antibody; also called P013.A.00085.H07) VH: QQLEQSGGGLVKPGGSLELCCKASGFSLSSSYWICWVRQAPGKGLEWIGCIYAGSSGSTYYANWVNGRFTLSRDIDQSTGCLQLSSLTAADTAMYYCARSIVDFSSGWGDLWGQGTLVTVSS VL: ALVMTQTPSPVSAAVGGTVTINCQASEDIYSNLAWYQQKPGQPPKLLMYGVSTLASGVPSRFSDSGSGTEFTLTISGLQSDDAATYYCLGVYTYISDVYYTFGGGTEVVVK ... 2.7
P013.S.02.B.G04 (antibody, V domains shown, rabbit monoclonal antibody; also called P013.A.00015.A11) VH: QSLEESGGRLVTPGTPLTLTCTVSGFSLSRCAMIWVRQAPGKGLEWIGFIGRGGSTWYASWVNGRFTISKTSTTVDLKITSPTTEDTATYFCARDGDYSDYYTFDLWGQGTLVTVSS VL: DVVMTQTPASVSERVGGTVTIKCQASQSIGSNLAWYQQKPGQPPKLLIYGASNLESGVPSRFSGSGSGTEFTLSISGVQSADAATYYCQCSGYDTTGVFPFGGGSEVVVK ... 2.9

Please examine the following record next.
I am curious: what hu-IL1RaP ELISA (OD) value has been reported for P013.S.01.B.G03 (antibody, V domains shown, rabbit monoclonal antibody; also called P013.A.00030.C03) VH: QEQLVESGGGLVQPEGSLTLTCKASGFDFSSNYYMCWVRQAPGKGLELIACIYTNSGNTWSASWAKGRFTISKTSSTTVTLQMTSLTAADTATYFCARDLNYPDTSNLWGQGTLVTVSS VL: DIVMTQTPASVEAAVGGTVTIKCQASQSIGYYLAWYQQKPGQPPKLLISRASTLASGVPSRFKGSGSGTQFTLTISDLESADVATYYCQSYYNSDSDAFGGGTEVVVK ?
3.2
